Origin of the recorded values: a melting point compilation (Tetko et al.; mined from patent text by program, amines drawn as free bases though some values may be those of a salt)

Readings of melting point for the listed compounds
EXPERIMENTAL_READOUT: melting point

COMPOUND: CCCC(=O)c1cc(-c2ccc(C)cc2)no1
RESULT: 86 to 87 °C

COMPOUND: CNc1cc(NS(=O)(=O)c2ccccc2)ccc1[N+](=O)[O-]
RESULT: 172 to 174 °C

COMPOUND: CCc1c(C)cc(C#N)c(N)c1C#N
RESULT: 121 to 123 °C

COMPOUND: CSc1cc(C(F)(F)F)ccc1C(=O)CC(=O)C1CC1
RESULT: 64 °C

COMPOUND: O=C(NCC(F)(F)F)C1CC(=O)N(Cc2ccccc2)C1 (stereo unspecified)
RESULT: 110 to 112 °C

COMPOUND: O=C(Cc1ccc2c(c1)OCO2)N[C@H]1CC[C@H](CCN2CCN(c3nccc4c3OCC4)CC2)CC1
RESULT: 187 °C

---

Below: a set of entries, each annotated with reported melting point.

COMPOUND: CCCC(=O)N(Cc1ccc(-c2ccccc2-c2nc(=O)s[nH]2)cc1)c1sc(C)cc1C(=O)OC
melting point: 131 to 132 °C
--
COMPOUND: Clc1ccc(CN2CCC(c3cc(-c4cccc(Cl)c4)[nH]n3)CC2)cc1
melting point: 156 to 157 °C
--
COMPOUND: CCCc1c(OCCCOc2ccccc2)ccc2c1OC(CCC(=O)O)(CCC(=O)O)CC2O (stereo not given)
melting point: 132 °C
--
COMPOUND: CCCCCCCCOC(=O)CCc1cc(-n2nc3ccc(S(=O)(=O)c4ccccc4)cc3n2)c(O)c(C(C)(C)C)c1
melting point: 62 to 63 °C
--
COMPOUND: COc1cc2c(Cl)c(C#N)cnc2cc1NC(C)=O
melting point: 230 to 235 °C
--
COMPOUND: CCCCc1nc(Cl)c(C=O)n1Cc1ccc(-c2nc3ccccn3c2C(=O)O)cc1
melting point: 120 to 123 °C
--
COMPOUND: N=C(NNC=O)c1ccc(-c2ccc(Cl)cc2)o1
melting point: 155 to 157 °C
--
COMPOUND: CCO[C@@H](Cc1ccc(OCCc2nc(-c3ccc(-c4ccccc4)cc3)oc2C)c2ccccc12)C(=O)O
melting point: 140 to 145 °C
--
COMPOUND: CCCCCCCCCCCCCCOCC(CC#N)(CC#N)COCCCCCCCCCCCCCC
melting point: 33 to 35 °C
--
COMPOUND: CC(C)Oc1cc(-n2c(=O)c3c(n(C)c2=O)CCCC3)c(F)cc1Cl
melting point: 143 to 145 °C
--
COMPOUND: O=C(NCCO)c1cccc(-c2cccc3nn(Cc4cccc(C(F)(F)F)c4)cc23)n1
melting point: 150 to 151 °C
--
COMPOUND: Clc1ccc(-c2cccs2)nn1
melting point: 155 °C
--
COMPOUND: CCN(CC)CC1CCCCN1CCNC(=O)N1c2ccccc2NC(=O)c2csc(C)c21 (stereo not given)
melting point: 132 to 133 °C
--
COMPOUND: O=C(NC1CCN(C2CCCCC2)C1)c1cccc2ccccc12 (stereo not given)
melting point: 119 to 120 °C
--
COMPOUND: N#Cc1ccc(NC(=O)c2ccc(-n3nc(C(F)(F)F)cc3C(F)(F)F)cc2)cc1
melting point: 192 to 193 °C
--
COMPOUND: CC(C)(C)C1C(=O)NN=C2CCCCC21 (stereo not given)
melting point: 161 to 164 °C
--
COMPOUND: COc1ccc(-c2nnn(-c3ccc(C(F)(F)F)cc3F)c2Cl)c(Cl)c1
melting point: 95.8 to 97.5 °C
--
COMPOUND: Cc1ccccc1OCc1ccccc1I
melting point: 106 to 108 °C
--
COMPOUND: CC(Cn1ncnn1)n1nnc2cc3c(=O)n(CC#N)nnc3cc2c1=O (stereo not given)
melting point: 209 to 212 °C
--
COMPOUND: COc1cccc(CCC(C(=O)c2ccc(O)cc2)c2ccccc2)c1 (stereo not given)
melting point: 125 to 129 °C
--
COMPOUND: Cc1c(C(=O)O)c(CC(=O)O)n(C)c1C(=O)c1cccnc1
melting point: 186 to 188 °C
--
COMPOUND: CN1C(=S)N(c2ccc(C#N)c(C(F)(F)F)c2)C(=O)C12CCCC2
melting point: 162 to 163 °C
--
COMPOUND: Oc1cc(O)n2nc(-c3ccc(F)cc3)c(-c3ccncc3)c2n1
melting point: > 250 °C
--
COMPOUND: CCc1cc(Br)cc2nc3c(=O)[nH][nH]c(=O)c3c(O)c12
melting point: 208 to 210 °C
--
COMPOUND: COc1ccc(-c2ccc(COc3cc4c(cc3CCN(CCCCC(=O)O)Cc3ccc(C(=O)O)cc3)CCCC4)cc2)cc1
melting point: > 240 °C
--
COMPOUND: Cn1nc(Sc2cc(C(F)(F)F)ccc2C(=O)O)n(C)c1=O
melting point: 211 °C
--
COMPOUND: CCC(=O)Nc1c(C(O)(C(F)(F)F)C(F)(F)F)ccc2ccccc12
melting point: 118 to 119 °C
--
COMPOUND: O=C(NC1CCN(CCc2ccc3ccccc3c2)CC1)c1ccccc1
melting point: 189 to 191 °C
--
COMPOUND: O=c1oc(-c2ccccc2)cc(O)c1Sc1ccccc1Cl
melting point: 275 to 280 °C
--
COMPOUND: C=C(C#N)S(=O)(=O)c1ccc(OC(F)(F)C(Cl)Cl)cc1
melting point: 89 to 90 °C
--
COMPOUND: CCOC(=O)C1=C(CSCCNC=O)NC(C)=C(C(C)=O)C1c1cccc([N+](=O)[O-])c1 (stereo not given)
melting point: 140 to 142 °C
--
COMPOUND: CC(Sc1nc(N)cc(Cl)n1)c1nccc2ccccc12 (stereo not given)
melting point: 179 to 180 °C
--
COMPOUND: C[C@H](Nc1ncnc2[nH]cnc12)c1oc2ccccc2c(=O)c1-c1cccc(F)c1
melting point: 135 to 138 °C
--
COMPOUND: COc1ccc(Cl)c2oc(-c3ccc(S(N)(=O)=O)cc3)c(-c3ccc(F)cc3)c(=O)c12
melting point: 279 to 281 °C
--
COMPOUND: COc1cc(C)c(C(=O)c2c(Cl)cccc2Cl)cc1OC(F)F
melting point: 126 to 128 °C
--
COMPOUND: N#Cc1c(Cl)cc(Cl)c(CCC(=O)O)c1Cl
melting point: 127 to 129 °C
--
COMPOUND: NNc1nc(F)c(C(F)(F)F)cc1Cl
melting point: 104 to 106 °C
--
COMPOUND: C1=C(c2ccc3[nH]ccc3c2)CCN(Cc2c[nH]c3ncccc23)C1
melting point: 187 to 189 °C
--
COMPOUND: CC(=O)N(O)C(C)c1cc2ccccc2o1 (stereo not given)
melting point: 130 to 132 °C
--
COMPOUND: ClCC1OCC(OCc2ccccc2)CO1 (stereo not given)
melting point: 38 to 39 °C

---

MOLECULE: C=C1C(=O)NC(=O)N1c1ccccc1
melting point: 168 to 170 °C

MOLECULE: COC(=O)[C@H](c1ccccc1Cl)N1CCc2sc(OC(=O)c3ccccc3)cc2C1
melting point: 84 to 86 °C

MOLECULE: COCCOCCOCCOc1cc(OC)c(-c2cccs2)cc1/C=C/C(=O)c1ccc(C(=O)O)cc1
melting point: 137 to 138 °C

MOLECULE: O=[N+]([O-])c1cc(C(F)(F)F)ccc1C(O)c1cnoc1C1CC1 (stereo not given)
melting point: 76 °C

MOLECULE: O=C1N(Cc2c[nH]c3ccccc23)CCCC12CCN(c1cnc3ccccc3n1)CC2
melting point: 109 to 111 °C

MOLECULE: CC(=NNc1ccc(C2=NNC(=O)CC2)cc1)c1ccc(C#N)cc1
melting point: 288 to 290 °C

MOLECULE: COc1cccc(C2OCCC(C)(C)C2(O)C(C)C)c1 (stereo not given)
melting point: 56 to 56.9 °C

MOLECULE: CN(CCOc1ccc(CC(Cl)C(N)=O)cc1)c1nc2ccccc2o1 (stereo not given)
melting point: 149 to 151 °C

MOLECULE: COC(=O)[C@@H]1CN(C(=O)OCc2ccccc2)C[C@H]1c1ccc(OC)c(OC2CCCC2)c1 (relative stereo)
melting point: 85 °C

MOLECULE: COC(=O)CC1=CCN(C)c2ccc(Cl)cc21
melting point: 99 to 101 °C

MOLECULE: OCc1ccccc1OCc1ncc2ccccc2n1
melting point: 92 to 96 °C

MOLECULE: CCCCn1cnnc1SCC(=O)c1ccc(OC)cc1
melting point: 79 to 82 °C

MOLECULE: CCOC(=O)C1=C(C)NC(SCc2ccccc2)=NC1c1cccc([N+](=O)[O-])c1 (stereo not given)
melting point: 129 to 130 °C

MOLECULE: Cc1cccc(C(=O)NO)c1N(C)S(=O)(=O)c1ccc(OCCCNC(=O)c2cc3ccccc3o2)cc1
melting point: 148 to 150 °C

MOLECULE: CCS(=O)CCn1nc(-c2cccc(Cl)c2Cl)c(=O)c2cccc(OC)c21 (stereo not given)
melting point: 128 to 130 °C

MOLECULE: COC(=O)c1cc(NC2CCOCC2)nc(Cl)n1
melting point: 190 to 192 °C

MOLECULE: COc1cc2ncnc(N3CCN(C(=O)Nc4cc(Cl)nc(Cl)c4)CC3)c2cc1OC
melting point: 267 to 270 °C

MOLECULE: COc1ccc(Cn2c(C)cc3c(=O)[nH][nH]c(=O)c32)cc1
melting point: 300 °C

MOLECULE: OCc1ccc(OCc2ccc3ccccc3n2)nc1
melting point: 124 to 125 °C

MOLECULE: NNC(=O)C[C@H](O)c1ccccc1
melting point: 180 °C

MOLECULE: CCCc1nc(C=O)c(C(=O)OCC)n1Cc1cc2c(cc1Cl)OCO2
melting point: 105 °C

MOLECULE: N#Cc1cnc2cc3c(cc2c1Nc1ccc(Oc2ccccc2)cc1)ncn3CCN1CCOCC1
melting point: > 260 °C

MOLECULE: Cc1ccc(S(=O)(=O)OCCc2cc3c4ccccc4[nH]c(=O)n3n2)cc1
melting point: 194 to 196 °C

MOLECULE: O=S1(=O)N=CN(C2CCCCCC2)c2cc(Cl)c(Cl)cc21
melting point: 222 to 224 °C

MOLECULE: CC1(C)C(=O)Nc2cc3oc(-c4ccncc4)nc3cc21
melting point: 336 to 338 °C

MOLECULE: CCCOc1ccc(S(=O)(=O)N2CCC(C(=O)OCC)CC2)cc1-c1nc2cc3nc[nH]c3cc2c(=O)[nH]1
melting point: 145 to 147 °C

MOLECULE: CCOCCOc1cc(C(O)C#Cc2ccc(C(=O)O)c(O)c2)cc2c1C(C)(C)CCC2(C)C (stereo not given)
melting point: 120 °C

MOLECULE: O=C(Nc1ccccc1)N1CC2(CN1)CNN(C(=O)Nc1ccccc1)C2
melting point: 227 °C

MOLECULE: COC(=O)c1cc(N)c(Oc2ccccc2)c(N)c1
melting point: 140 to 142 °C

MOLECULE: COc1ccc(C2=NN(C3CCN(C(=O)CN4C(=O)c5ccccc5C4=O)CC3)C(=O)C(C)(C)C2)cc1OC
melting point: 193 to 194 °C

MOLECULE: CN(C)C1(c2ccccc2)CCC(c2[nH]c3ccccc3c2CC2CCCCC2)CC1 (stereo not given)
melting point: 195 to 198 °C

MOLECULE: COc1ccc(-c2ccc(C(=O)Nc3cc4ncc(CN5CCCC5)cc4cc3C)cc2F)cc1
melting point: 165 to 167 °C

MOLECULE: CCOC(=O)c1ccc(-c2ccc(C#N)cc2)s1
melting point: 133 to 134 °C

MOLECULE: COc1ccc(C2C=C3CCN(Cc4ccccc4)CC3C(CO)C2CO)cc1 (stereo not given)
melting point: 145 to 147 °C

MOLECULE: CN1CC(CN2CCC(C(O)(c3ccc(F)cc3)c3ccc(F)cc3)CC2)OC1=O (stereo not given)
melting point: 147 to 148 °C

MOLECULE: Cn1cnc(COc2nn3c(-c4ccccc4F)nnc3cc2C2CCC2)c1
melting point: 176 °C

MOLECULE: CCc1c(C)nc2c(O)cccn2c1=O
melting point: 128 °C

MOLECULE: CC(=O)NCc1ccc(CN2CCN(c3ncc(Br)s3)CC2)cc1
melting point: 160 to 163 °C

MOLECULE: O=C1C=C2CN(C(C(=O)C3CC3)c3ccccc3F)CCC2S1 (stereo not given)
melting point: 123 to 125 °C

MOLECULE: Nc1ncc(Sc2ccc([N+](=O)[O-])cc2)s1
melting point: 162 to 164 °C
